The origin of these recorded values is paper PMC11855827.

Tested on: C. elegans
EXPERIMENTAL CONTEXT: Table S2, C. elegans SS assay, 110 μM, 0 h, averages of 4 data points
OBSERVATION TYPE: Percentage of motility inhibition 0 h

- Cc1nnc(SCC2=C(C(=O)[O-])N3C(=O)[C@@H](NC(=O)Cn4cnnn4)[C@H]3SC2)s1.[Na+] [Cefazolin (sodium)]: 14%
- COc1cccc(-c2oc3ccccc3c(=O)c2O)c1 [3'‐Methoxyflavonol]: 9%
- C=C1C[C@@]23CC[C@H]4[C@@](C)(CCC[C@@]4(C)C(=O)O[C@@H]4O[C@H](CO)[C@@H](O)[C@H](O)[C@H]4O[C@@H]4O[C@H](CO)[C@@H](O)[C@H](O)[C@H]4O)[C@@H]2CC[C@]1(O[C@@H]1O[C@H](CO)[C@@H](O)[C@H](O[C@@H]2O[C@H](CO)[C@@H](O)[C@H](O)[C@H]2O)[C@H]1O[C@@H]1O[C@H](CO)[C@@H](O)[C@H](O)[C@H]1O)C3 [Rebaudioside D]: 11%
- COC(=O)C1=CCCNC1.Cl [Guvacoline (hydrochloride)]: 0%

###

# inhibition at 110 µM listing for each entry below
Test system: C. elegans
PROTOCOL DESCRIPTION: microbe, parasite or virus in culture
EXPERIMENTAL CONTEXT: Caenorhabditis elegans, 24 h, read-out: Percentage of motility inhibition 24 h, Table S2, C. elegans SS assay, 110 μM, 24 h, averages of 4 data points
OBSERVATION TYPE: inhibition at 110 µM

- CC(C)CCC[C@@H](C)[C@H]1CC[C@H]2[C@@H]3CC=C4C[C@@H](O)CC[C@]4(C)[C@H]3CC[C@]12C [Cholesterol]: 17%
- CCn1cc(C(=O)O)c(=O)c2ccc(C)nc21 [Nalidixic acid]: 18%
- Nc1ccn([C@H]2CC[C@@H](CO)O2)c(=O)n1 [Zalcitabine]: 20%
- Cc1ncc([N+](=O)[O-])n1C [Dimetridazole]: 14%
- O=c1c(O)cc([C@H]2Oc3cc(O)cc(O)c3C[C@H]2O)cc2c([C@H]3Oc4cc(O)cc(O)c4C[C@H]3O)cc(O)c(O)c12 [Theaflavin]: 5%
- COc1ccccc1O [Guaiacol]: 10%
- O=C(CCc1ccc(O)c(O)c1)NCCCNCCCCNCCCNC(=O)CCc1ccc(O)c(O)c1 [Kukoamine A]: 32%
- COc1ccc2cc1Oc1ccc(cc1)C[C@H]1c3cc(c(OC)cc3CCN1C)Oc1c(OC)c(OC)cc3c1[C@H](C2)N(C)CC3 [Tetrandrine]: 16%

###

System: C. elegans
PROTOCOL DESCRIPTION: microbe, parasite or virus in culture
EXPERIMENTAL CONTEXT: Caenorhabditis elegans, 24 h, read-out: Percentage of motility inhibition 24 h, Table S2, C. elegans SS assay, 110 μM, 24 h, averages of 4 data points
Binary call on inhibition at 110 µM: 1 from 20% upward, -1 beneath that.

* Oc1c(I)cc(I)c2cccnc12 [Diiodohydroxyquinoline] | 1
* O=c1ccc2nccc3c4ccccc4n1c23 | -1
* CC(C)=CCc1c(-c2ccc(O)cc2O)oc2c3c(cc(O)c2c1=O)OC(C)(C)C=C3 | -1
* O=C(O)c1cn(C2CC2)c2cc(N3CCC(O)(COc4ccc(N5C[C@H](CO)OC5=O)cc4F)CC3)c(F)cc2c1=O | 1
* C=C[C@]1(C)C[C@@H](OC(=O)CO)[C@]2(C)[C@H](C)CC[C@]3(CCC(=O)[C@H]32)[C@@H](C)[C@@H]1O | -1
* COc1ncnc(NS(=O)(=O)c2ccc(N)cc2)c1OC | -1
* CC(C)=CCC[C@](C)(O[C@@H]1O[C@H](CO)[C@@H](O)[C@H](O)[C@H]1O)[C@H]1CC[C@]2(C)[C@@H]1[C@H](O)C[C@@H]1[C@@]3(C)CC[C@H](O)C(C)(C)[C@@H]3[C@@H](O[C@@H]3O[C@H](CO)[C@@H](O)[C@H](O)[C@H]3O[C@@H]3O[C@@H](C)[C@H](O)[C@@H](O)[C@H]3O)C[C@]12C [Ginsenoside Re] | -1
* Cc1[nH]ccc2c1[nH]c1cc(=O)ccc12 | -1
* C=C(CC[C@@H](C(=O)O)[C@H]1[C@H](O)C[C@@]2(C)C3=C(CC[C@]12C)[C@@]1(C)CC[C@H](OC(C)=O)C(C)(C)[C@@H]1CC3)C(C)C | 1
* O=c1c(O)c(-c2ccc(O)cc2O)oc2cc(O)cc(O)c12 | -1
* CC1=C(C(=O)O)N2C(=O)[C@@H](NC(=O)[C@H](N)C3=CCC=CC3)[C@H]2SC1 | -1
* CC(C)N1CCN(c2ccc(OCC3COC(Cn4cncn4)(c4ccc(Cl)cc4Cl)O3)cc2)CC1 (stereo not drawn) | -1
* COc1ccc(-c2coc3cc(O[C@@H]4O[C@H](CO)[C@@H](O)[C@H](O)[C@H]4O)ccc3c2=O)cc1 | -1
* CC(C)(O/N=C(\C(=O)N[C@@H]1C(=O)N2C(C(=O)[O-])=C(C[n+]3ccccc3)CS[C@H]12)c1csc(N)n1)C(=O)O | 1
* Cc1c(C(N)=O)cc([N+](=O)[O-])cc1[N+](=O)[O-] [Dinitolmide] | -1
